experimental.target: T1, human transferrin receptor 1 (hTfR1) (human, UniProt P02786 89-760, limits assumed)
T1 construct: The selections used the biotinylated ECD domain of hTfR1
T1 sequence (P02786 89-760 limits assumed): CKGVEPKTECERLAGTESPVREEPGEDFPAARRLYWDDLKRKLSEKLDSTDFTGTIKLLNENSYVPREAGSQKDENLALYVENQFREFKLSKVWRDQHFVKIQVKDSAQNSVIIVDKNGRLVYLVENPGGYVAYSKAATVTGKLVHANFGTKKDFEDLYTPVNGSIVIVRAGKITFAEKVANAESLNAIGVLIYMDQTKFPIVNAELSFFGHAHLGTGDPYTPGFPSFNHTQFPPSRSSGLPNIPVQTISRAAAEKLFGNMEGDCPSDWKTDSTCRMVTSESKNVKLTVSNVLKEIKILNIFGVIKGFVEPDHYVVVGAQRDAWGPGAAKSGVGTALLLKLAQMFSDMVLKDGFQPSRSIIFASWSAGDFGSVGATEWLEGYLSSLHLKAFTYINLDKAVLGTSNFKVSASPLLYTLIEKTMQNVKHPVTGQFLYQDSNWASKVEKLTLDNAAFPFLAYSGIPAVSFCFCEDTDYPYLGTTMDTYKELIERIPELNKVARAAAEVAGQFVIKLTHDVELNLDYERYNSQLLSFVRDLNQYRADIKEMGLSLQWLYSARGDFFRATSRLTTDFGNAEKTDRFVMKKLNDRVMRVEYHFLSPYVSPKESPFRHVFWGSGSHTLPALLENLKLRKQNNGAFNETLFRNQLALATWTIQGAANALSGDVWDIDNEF
test.protocol: competition ELISA, Fab
pKd: −log10 of the molar value.
Param threshold (9) applies to pKd; output criterion met when value >= threshold, criterion not met when value < threshold.

binder	assigned.category
Fab0065 (Fab, V domains shown) VH: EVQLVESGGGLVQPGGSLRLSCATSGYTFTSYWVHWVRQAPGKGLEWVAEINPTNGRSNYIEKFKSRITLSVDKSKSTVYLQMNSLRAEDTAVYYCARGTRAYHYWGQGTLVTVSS VL: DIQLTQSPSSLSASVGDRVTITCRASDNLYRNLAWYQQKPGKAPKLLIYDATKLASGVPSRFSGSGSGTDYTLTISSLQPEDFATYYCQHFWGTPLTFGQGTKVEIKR	criterion met
Fab0073 (Fab, V domains shown) VH: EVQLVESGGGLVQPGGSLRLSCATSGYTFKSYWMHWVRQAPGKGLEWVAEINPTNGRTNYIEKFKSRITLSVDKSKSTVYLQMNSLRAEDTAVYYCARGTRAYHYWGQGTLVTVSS VL: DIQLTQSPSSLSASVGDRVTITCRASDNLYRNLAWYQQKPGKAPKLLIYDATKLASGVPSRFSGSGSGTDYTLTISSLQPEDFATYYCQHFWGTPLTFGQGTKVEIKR	criterion met
Fab0071 (Fab, V domains shown) VH: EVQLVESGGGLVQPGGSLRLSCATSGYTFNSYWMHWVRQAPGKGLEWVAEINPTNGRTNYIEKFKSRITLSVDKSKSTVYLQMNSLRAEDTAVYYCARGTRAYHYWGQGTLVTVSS VL: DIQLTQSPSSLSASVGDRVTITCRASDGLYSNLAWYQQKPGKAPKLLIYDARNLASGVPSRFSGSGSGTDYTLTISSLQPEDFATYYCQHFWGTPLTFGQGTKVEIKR	criterion met
Fab0002 (Fab, V domains shown) VH: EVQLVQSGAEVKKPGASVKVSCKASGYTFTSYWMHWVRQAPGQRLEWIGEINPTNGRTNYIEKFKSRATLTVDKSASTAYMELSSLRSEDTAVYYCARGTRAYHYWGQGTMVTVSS VL: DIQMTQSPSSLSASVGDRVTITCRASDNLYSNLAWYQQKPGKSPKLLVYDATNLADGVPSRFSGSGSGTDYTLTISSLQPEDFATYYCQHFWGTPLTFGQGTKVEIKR	criterion not met

Here is the next item to consider.
## Task Item Fab0067 (Fab, V domains shown) VH: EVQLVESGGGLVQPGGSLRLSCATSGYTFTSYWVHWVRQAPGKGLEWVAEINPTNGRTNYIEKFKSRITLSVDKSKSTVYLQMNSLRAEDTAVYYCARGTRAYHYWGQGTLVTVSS VL: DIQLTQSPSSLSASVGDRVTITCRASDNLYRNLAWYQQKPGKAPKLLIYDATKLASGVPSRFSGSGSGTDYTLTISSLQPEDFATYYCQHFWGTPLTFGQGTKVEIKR with pKd of 9 or above?
## Result criterion met
